Target: MINK1 (human)
Assay: radiometric filter-binding kinase assay, Kinase HotSpot
Settings: compound 0.5 µM; ATP 10 µM
Rule: YES for residual activity not less than 80%, NO for anything less.

{"smiles_notation": "Fc1ccc(-c2nc3n(c2-c2ccncc2)CCS3)cc1", "class_name": "YES"}
{"smiles_notation": "COc1cc2ncnc(Nc3ccc(OCc4ccccc4)cc3)c2cc1OC", "class_name": "YES"}
{"smiles_notation": "O=C1Nc2ccc(Br)cc2/C1=C\\c1cc2c([nH]1)CCCC2", "class_name": "NO"}
{"smiles_notation": "COc1ccc(C(=O)Nc2sc3c(c2C(N)=O)CCCC3)cc1OC", "class_name": "YES"}
{"smiles_notation": "COc1ccc(Cl)cc1NC(=O)Nc1cc(C)nc2ccccc12", "class_name": "YES"}
{"smiles_notation": "Cc1cccc(-c2nc(C(C)(C)C)[nH]c2-c2ccc3c(c2)OCO3)n1", "class_name": "YES"}
{"smiles_notation": "Cc1nc(-c2ccccc2)c(-c2ccncc2)o1", "class_name": "YES"}
{"smiles_notation": "CS(=O)(=O)CCNCc1ccc(-c2ccc3ncnc(Nc4ccc(OCc5cccc(F)c5)c(Cl)c4)c3c2)o1", "class_name": "YES"}
{"smiles_notation": "CC(C)(C)c1cc(C=C(C#N)C#N)cc(Br)c1O", "class_name": "YES"}
{"smiles_notation": "COc1cc2ncnc(Nc3ccc(Oc4ccccc4)cc3)c2cc1OC", "class_name": "YES"}
{"smiles_notation": "C[C@@H]1CCN(C(=O)CC#N)C[C@@H]1N(C)c1ncnc2[nH]ccc12", "class_name": "YES"}
{"smiles_notation": "N#Cc1c[nH]c2c[nH]/c(=N\\Cc3cccnc3)cc2/c1=N\\c1ccc(F)c(Cl)c1", "class_name": "NO"}
{"smiles_notation": "O=C1c2ccccc2-c2nc3nnnn3nc21", "class_name": "YES"}
{"smiles_notation": "CN(C)CCCn1cc(C2=C(c3c[nH]c4ccccc34)C(=O)NC2=O)c2ccccc21", "class_name": "YES"}
{"smiles_notation": "COc1cc(Nc2c(C#N)cnc3cc(OCCCN4CCN(C)CC4)c(OC)cc23)c(Cl)cc1Cl", "class_name": "NO"}
{"smiles_notation": "O=C(c1cc2cc(O)ccc2[nH]1)c1cc2cc(O)ccc2[nH]1", "class_name": "NO"}
{"smiles_notation": "COc1ccc2c(c1)/C(=C/c1cnc[nH]1)C(O)=N2", "class_name": "NO"}
{"smiles_notation": "Cc1cncc2cccc(S(=O)(=O)N3CCCN(C(=O)CN)C[C@H]3C)c12", "class_name": "YES"}

====

Target: HIPK4 (human)
Experiment: radiometric filter-binding kinase assay, Kinase HotSpot
Settings: compound 0.5 µM; ATP 10 µM
quantity_measured: residual activity (%)

{"smiles_notation": "COc1ccc(Cl)cc1NC(=O)Nc1cc(C)nc2ccccc12", "quantity_measured": "residual activity", "unit_label": "%", "value_reported": 109}
{"smiles_notation": "COc1ccc2c(c1)c(C1=C(c3c[nH]c4ccccc34)C(=O)NC1=O)cn2CCCN(C)C", "quantity_measured": "residual activity", "unit_label": "%", "value_reported": 101}
{"smiles_notation": "CN(C)S(=O)(=O)c1ccc2c(c1)/C(=C/c1cc3c([nH]1)CCCC3)C(=O)N2", "quantity_measured": "residual activity", "unit_label": "%", "value_reported": 98.8}
{"smiles_notation": "c1ccc2c(-c3ccncc3)c[nH]c2c1", "quantity_measured": "residual activity", "unit_label": "%", "value_reported": 93.8}
{"smiles_notation": "COc1ccc(S(=O)(=O)N(CCO)c2ccccc2CN(C)C/C=C/c2ccc(Cl)cc2)cc1", "quantity_measured": "residual activity", "unit_label": "%", "value_reported": 101}
{"smiles_notation": "O=C(c1cc2cc(O)ccc2[nH]1)c1cc2cc(O)ccc2[nH]1", "quantity_measured": "residual activity", "unit_label": "%", "value_reported": 99.8}
{"smiles_notation": "CS(=O)(=O)CCNCc1ccc(-c2ccc3ncnc(Nc4ccc(OCc5cccc(F)c5)c(Cl)c4)c3c2)o1", "quantity_measured": "residual activity", "unit_label": "%", "value_reported": 108}
{"smiles_notation": "Cn1c2ccccc2c2c3c(c4c5ccccc5n(CCC#N)c4c21)CNC3=O", "quantity_measured": "residual activity", "unit_label": "%", "value_reported": 103}
{"smiles_notation": "O=C1Nc2ccc(Br)cc2/C1=C\\c1cc2c([nH]1)CCCC2", "quantity_measured": "residual activity", "unit_label": "%", "value_reported": 104}
{"smiles_notation": "COc1cc2ncnc(Nc3ccc(Oc4ccccc4)cc3)c2cc1OC", "quantity_measured": "residual activity", "unit_label": "%", "value_reported": 91.8}
{"smiles_notation": "O=C1C(Cl)=C(N2C(=O)CCC2=O)C(=O)c2ccccc21", "quantity_measured": "residual activity", "unit_label": "%", "value_reported": 98.2}
{"smiles_notation": "NC(=O)c1cccc(-c2cc(Nc3ccc(OC(F)(F)F)cc3)ncn2)c1", "quantity_measured": "residual activity", "unit_label": "%", "value_reported": 101}
{"smiles_notation": "Cc1cccc(-c2nc(C(C)(C)C)[nH]c2-c2ccc3c(c2)OCO3)n1", "quantity_measured": "residual activity", "unit_label": "%", "value_reported": 107}
{"smiles_notation": "CC(C)(C)c1cc(C=C(C#N)C#N)cc(Br)c1O", "quantity_measured": "residual activity", "unit_label": "%", "value_reported": 103}
{"smiles_notation": "CCCCc1c(-c2ccc(OC)cc2)[nH]c2nccnc12", "quantity_measured": "residual activity", "unit_label": "%", "value_reported": 119}
{"smiles_notation": "COc1ccc2c(c1)/C(=C/c1cnc[nH]1)C(O)=N2", "quantity_measured": "residual activity", "unit_label": "%", "value_reported": 90.8}
{"smiles_notation": "CO[C@@H]1[C@H](N(C)C(=O)c2ccccc2)C[C@H]2O[C@]1(C)n1c3ccccc3c3c4c(c5c6ccccc6n2c5c31)C(=O)NC4", "quantity_measured": "residual activity", "unit_label": "%", "value_reported": 90.5}
{"smiles_notation": "COc1ccc(C(=O)Nc2sc3c(c2C(N)=O)CCCC3)cc1OC", "quantity_measured": "residual activity", "unit_label": "%", "value_reported": 103}
{"smiles_notation": "COc1cc2ncnc(Nc3ccc(OCc4ccccc4)cc3)c2cc1OC", "quantity_measured": "residual activity", "unit_label": "%", "value_reported": 100}
{"smiles_notation": "COc1cc(Nc2c(C#N)cnc3cc(OCCCN4CCN(C)CC4)c(OC)cc23)c(Cl)cc1Cl", "quantity_measured": "residual activity", "unit_label": "%", "value_reported": 74.6}
{"smiles_notation": "Cc1cncc2cccc(S(=O)(=O)N3CCCN(C(=O)CN)C[C@H]3C)c12", "quantity_measured": "residual activity", "unit_label": "%", "value_reported": 91.1}
